biological target: F508delCFTR (Homo sapiens, UniProt P13569, DEL508-508); construct: expressed in transfected cells; host or cells: CFBE41o- human lung-derived epithelial cells (CFBE4lo-F508delCFTR-HRP), doxycycline-inducible; experiment: Cell Surface Expression-Horse Radish Peroxidase (CSE-HRP) Assay; format: cell-based; settings: with co-corrector (2 μM of 3-[(2R,4R)-4-({[1-(2,2-difluoro-1,3-benzodioxol-5-yl)cyclopropyl]carbonyl}amino)-7-methoxy-3,4-dihydro-2H-chromen-2-yl]benzoic acid); maximum at any tested concentration, normalized to on-plate positive control;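 also: co-corrector and positive control are both the same reference corrector at 2 µM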
Sequence (P13569 with tags, fused parts or gaps DEL508-508): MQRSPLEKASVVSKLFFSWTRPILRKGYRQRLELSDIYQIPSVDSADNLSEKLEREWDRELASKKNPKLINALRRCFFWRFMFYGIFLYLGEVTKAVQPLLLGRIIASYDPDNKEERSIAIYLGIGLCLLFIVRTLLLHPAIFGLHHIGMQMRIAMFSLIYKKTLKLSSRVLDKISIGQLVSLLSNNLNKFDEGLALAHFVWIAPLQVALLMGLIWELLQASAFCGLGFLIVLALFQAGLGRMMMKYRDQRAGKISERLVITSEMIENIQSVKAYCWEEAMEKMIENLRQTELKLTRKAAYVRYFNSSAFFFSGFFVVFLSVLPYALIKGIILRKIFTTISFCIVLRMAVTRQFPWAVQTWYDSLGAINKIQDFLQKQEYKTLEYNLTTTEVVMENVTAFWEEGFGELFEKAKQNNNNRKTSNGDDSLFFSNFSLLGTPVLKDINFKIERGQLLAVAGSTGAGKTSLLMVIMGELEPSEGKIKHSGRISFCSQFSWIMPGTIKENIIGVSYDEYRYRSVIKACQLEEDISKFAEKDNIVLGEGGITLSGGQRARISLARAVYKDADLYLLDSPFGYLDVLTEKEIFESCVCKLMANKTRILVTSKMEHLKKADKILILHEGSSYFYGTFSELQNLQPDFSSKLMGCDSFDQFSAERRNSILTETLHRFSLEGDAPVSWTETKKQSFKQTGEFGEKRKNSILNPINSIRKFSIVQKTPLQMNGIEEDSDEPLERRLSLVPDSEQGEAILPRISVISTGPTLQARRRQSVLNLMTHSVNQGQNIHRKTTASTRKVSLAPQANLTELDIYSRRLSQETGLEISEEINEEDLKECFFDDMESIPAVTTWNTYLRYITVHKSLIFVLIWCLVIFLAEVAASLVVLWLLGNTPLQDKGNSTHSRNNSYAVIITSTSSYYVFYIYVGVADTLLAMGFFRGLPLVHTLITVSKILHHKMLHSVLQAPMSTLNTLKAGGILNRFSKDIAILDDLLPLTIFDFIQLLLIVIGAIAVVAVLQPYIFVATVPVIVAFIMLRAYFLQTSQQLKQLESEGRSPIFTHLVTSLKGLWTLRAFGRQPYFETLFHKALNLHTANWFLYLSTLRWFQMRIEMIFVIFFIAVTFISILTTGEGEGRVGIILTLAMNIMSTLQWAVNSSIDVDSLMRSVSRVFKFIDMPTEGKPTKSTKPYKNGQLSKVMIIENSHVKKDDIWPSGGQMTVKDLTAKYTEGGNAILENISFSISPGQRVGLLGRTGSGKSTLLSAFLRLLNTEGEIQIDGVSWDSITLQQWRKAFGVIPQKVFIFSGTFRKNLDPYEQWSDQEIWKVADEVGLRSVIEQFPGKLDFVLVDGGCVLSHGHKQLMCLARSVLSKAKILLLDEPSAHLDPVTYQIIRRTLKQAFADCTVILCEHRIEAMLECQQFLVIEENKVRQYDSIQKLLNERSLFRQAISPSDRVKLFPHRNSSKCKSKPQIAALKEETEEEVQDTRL
Reported Endpoint: Maximum % activity (with co-corrector)

Solved cases (6 shown):
1) COc1ncc(C2CCC2)cc1CN[C@H]1[C@H](C(C)(C)C)[C@@H](C(=O)O)N(C(=O)[C@@H]2CCCO2)[C@H]1c1ccccc1C(F)F = +++ (≥350)
2) Cc1cc(C(F)(F)F)cc(N[C@H]2C(c3ccccc3)N(C(=O)N(C(C)C)C(C)C)[C@@H](C(=O)O)[C@@H]2C2CC2)n1 (mixture of isomers) = ++ (≥150 and <350)
3) COc1ccc(Cl)cc1CN[C@@H]1[C@@H](C)[C@H](C(=O)O)N(C(=O)N(C(C)C)C(C)C)[C@@H]1c1ccccc1 (racemic) = ++ (≥150 and <350)
4) COc1ccc(OC(F)(F)F)cc1CN[C@H]1[C@H](C(C)(C)C)[C@@H](C(=O)O)N(C(=O)[C@H](C)c2ccccc2)[C@H]1c1cccnc1OC = +++ (≥350)
5) COc1ncc(C2CCC2)cc1CN[C@H]1[C@H](C(C)(C)C)[C@@H](C(=O)O)N(C(=O)C2CCCCO2)[C@H]1c1cccnc1N(C)C (stereo partly drawn) = +++ (≥350)
6) COc1cc(C(F)(F)F)ccc1CN[C@H]1[C@H](C(C)(C)C)[C@@H](C(=O)O)N(C(=O)OC(C)C)[C@H]1c1cccnc1OC = +++ (≥350)

Item COc1ccc(C(C)(C)C)cc1CN[C@H]1[C@H](C(C)(C)C)[C@@H](C(=O)O)N(C(=O)C2(C)CCc3c(Cl)cccc32)[C@H]1c1ccccc1 (stereo partly drawn) has what recorded Maximum % activity (with co-corrector)?
+++ (≥350)

Also check "CCCCOC(=O)N1[C@H](C(=O)O)[C@@H](C(C)(C)C)[C@H](NCc2cc(C(C)(C)C)ccc2OC)[C@@H]1c1ccccc1"
+++ (≥350)

Also check COc1ccc(C(C)(C)C)cc1CN[C@H]1[C@H](C(C)(C)C)[C@@H](C(=O)O)N(C(=O)C2CCO2)[C@H]1c1ccccc1 (stereo partly drawn)
+++ (≥350)

Also check "COc1cc(C(F)(F)F)ccc1CN[C@H]1[C@H](C(C)(C)C)[C@@H](C(=O)O)N(C(=O)[C@@H]2CCC[C@H](O)C2)[C@H]1c1ccccc1"
+++ (≥350)

Also check "COc1ccc(C2(C)CCC2)cc1CN[C@H]1[C@H](C(C)(C)C)[C@@H](C(=O)O)N(C(=O)[C@@H]2CCCO2)[C@H]1c1ccccc1C"
+++ (≥350)

Also check COc1nc(C(C)(C)C)ccc1CN[C@H]1[C@H](C(C)(C)C)[C@@H](C(=O)O)N(C(=O)[C@H]2OC[C@H]3CCC[C@H]32)[C@H]1c1ccccc1 (relative stereo)
+++ (≥350)

All values here come from patent US20180099931A1.
